Where do the numbers come from? From patent US9828381B2.

- SYSTEM_NAME: GABA-B receptor (Rattus norvegicus (Rat), UniProt O88871+Q9Z0U4)
- Sequence (Q9Z0U4 17-960): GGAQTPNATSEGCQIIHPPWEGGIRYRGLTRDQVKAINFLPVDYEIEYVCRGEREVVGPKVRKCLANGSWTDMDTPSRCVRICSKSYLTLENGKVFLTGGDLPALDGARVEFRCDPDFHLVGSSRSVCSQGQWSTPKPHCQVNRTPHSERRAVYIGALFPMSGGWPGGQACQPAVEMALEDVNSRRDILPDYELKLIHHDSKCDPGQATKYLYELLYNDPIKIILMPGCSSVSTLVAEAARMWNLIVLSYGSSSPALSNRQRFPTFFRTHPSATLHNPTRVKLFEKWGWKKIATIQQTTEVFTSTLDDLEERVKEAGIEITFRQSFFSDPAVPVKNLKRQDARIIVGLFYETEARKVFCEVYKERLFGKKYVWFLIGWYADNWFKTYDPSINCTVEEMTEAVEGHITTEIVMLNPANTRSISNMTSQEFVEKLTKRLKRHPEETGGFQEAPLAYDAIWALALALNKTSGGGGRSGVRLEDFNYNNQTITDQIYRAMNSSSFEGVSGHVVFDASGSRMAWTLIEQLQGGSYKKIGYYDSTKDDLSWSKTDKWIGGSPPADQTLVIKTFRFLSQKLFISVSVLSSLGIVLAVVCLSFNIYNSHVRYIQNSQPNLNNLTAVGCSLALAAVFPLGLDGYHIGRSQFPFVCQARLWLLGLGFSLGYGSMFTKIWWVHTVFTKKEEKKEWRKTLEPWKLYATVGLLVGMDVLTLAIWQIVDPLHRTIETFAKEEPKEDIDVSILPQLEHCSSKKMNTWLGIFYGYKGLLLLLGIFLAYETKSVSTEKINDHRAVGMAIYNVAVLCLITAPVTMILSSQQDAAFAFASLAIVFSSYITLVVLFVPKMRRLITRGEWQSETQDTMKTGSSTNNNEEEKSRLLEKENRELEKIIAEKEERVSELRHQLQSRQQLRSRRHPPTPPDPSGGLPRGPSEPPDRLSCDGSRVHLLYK
- Sequence (O88871 41-940): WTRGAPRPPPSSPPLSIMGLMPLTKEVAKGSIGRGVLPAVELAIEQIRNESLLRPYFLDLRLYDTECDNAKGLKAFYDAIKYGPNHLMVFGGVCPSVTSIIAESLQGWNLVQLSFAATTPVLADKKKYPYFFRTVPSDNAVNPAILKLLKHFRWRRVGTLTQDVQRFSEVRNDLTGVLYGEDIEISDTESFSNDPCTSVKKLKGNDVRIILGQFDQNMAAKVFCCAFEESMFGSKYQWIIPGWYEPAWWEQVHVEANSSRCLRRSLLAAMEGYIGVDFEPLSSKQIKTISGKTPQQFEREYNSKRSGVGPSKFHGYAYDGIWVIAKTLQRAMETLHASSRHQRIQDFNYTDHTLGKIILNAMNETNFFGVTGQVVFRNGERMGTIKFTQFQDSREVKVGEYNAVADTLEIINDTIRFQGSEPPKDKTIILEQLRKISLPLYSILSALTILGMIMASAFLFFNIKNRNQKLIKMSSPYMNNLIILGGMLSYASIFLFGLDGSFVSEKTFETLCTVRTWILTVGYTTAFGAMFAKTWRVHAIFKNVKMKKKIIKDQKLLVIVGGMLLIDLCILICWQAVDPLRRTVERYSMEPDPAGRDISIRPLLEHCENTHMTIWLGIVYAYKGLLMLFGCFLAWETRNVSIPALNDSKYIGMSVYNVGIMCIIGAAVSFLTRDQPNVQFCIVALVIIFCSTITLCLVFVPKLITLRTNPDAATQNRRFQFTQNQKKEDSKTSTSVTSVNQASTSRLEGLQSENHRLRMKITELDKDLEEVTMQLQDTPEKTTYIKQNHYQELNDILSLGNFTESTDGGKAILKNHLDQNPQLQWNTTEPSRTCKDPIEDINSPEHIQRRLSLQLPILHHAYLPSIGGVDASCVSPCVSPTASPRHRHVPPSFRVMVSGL
- TEST_PROTOCOL: [35S]GTPgS binding assay, rat cortical membranes, in presence of EC25 GABA
- CONDITION_PARAMETERS: rat brain cortex membranes; in presence of 1 μM GABA (EC25); positive allosteric modulation
pEC50: −log10 of the molar value.
MEASUREMENT_NAME: pEC50

molecule="Cc1cc(N2CCC(F)(F)C2)n2nc(C(C)c3ccc(Cl)cc3)cc2n1 (centres unmarked)" value_reported=6.29

A. Cc1cc(N2CCCCC2CO)n2nc(C(C)c3ccc(Cl)cc3)cc2n1 (centres unmarked)
B. Cc1cc(N2CCC(O)C(F)(F)C2)n2nc(Cc3ccc(Cl)cc3)cc2n1 (centres unmarked)
Identify the entry with the larger pEC50. Options: A and B Your answer should be the label of the entry you select. A

* * *

- SYSTEM_NAME: GABA-B receptor (Rattus norvegicus (Rat), UniProt O88871+Q9Z0U4)
- TEST_PROTOCOL: [35S]GTPgS binding assay, rat cortical membranes, in presence of EC25 GABA
- CONDITION_PARAMETERS: rat brain cortex membranes; in presence of 1 μM GABA (EC25); positive allosteric modulation
pEC50: −log10 of the molar value.
MEASUREMENT_NAME: pEC50

molecule="Cc1cc(N2CCC3(CC2)COC3)n2nc(C(C)c3ccc(C(F)(F)F)cc3)cc2n1 (centres unmarked)" value_reported=6.25
molecule=Cc1cc(N[C@@H](C)C(F)(F)F)n2nc(Cc3ccc(Cl)cc3)cc2n1 value_reported=5.57
molecule="Cc1cc(N2CCCCC2CO)n2nc(Cc3ccc(Cl)cc3)cc2n1 (centres unmarked)" value_reported=5.78
molecule="Cc1cc(N2CCC[C@@H](O)C2)n2nc(C(C)c3ccc(C(F)(F)F)cc3)cc2n1 (some centres unmarked)" value_reported=6.44
molecule="Cc1cc(NC2(C)CC2)n2nc(C(C)c3ccc(Cl)cn3)cc2n1 (centres unmarked)" value_reported=5.88
molecule="Cc1cc(N2CCCC(F)(F)C2)n2nc(C(C)c3ccc(Cl)cn3)cc2n1 (centres unmarked)" value_reported=6.20

1. Cc1cc(NC2CC(F)C2)n2nc(C(C)c3ccc(C(F)(F)F)cc3)cc2n1 (centres unmarked)
2. Cc1cc(N2CCCC(F)C2)n2nc(C(C)c3ccc(Cl)cc3)cc2n1 (centres unmarked)
3. Cc1cc(N2CCCCC2CCO)n2nc(CC34CC5CC(CC(C5)C3)C4)cc2n1 (centres unmarked)
4. Cc1cc(N2CCCC(F)(F)C2)n2nc(C(c3ccc(Cl)cc3)C(C)C)cc2n1 (centres unmarked)
Sort low-to-high on pEC50, please. // ordering of labels required in reply 3, 1, 2, 4
(3: 5.97, 1: 6.29, 2: 6.62, 4: 8.05)

a. Cc1cc(N2CCCC(F)C2)n2nc(C(C)c3ccc(C(F)(F)F)cc3)cc2n1 (centres unmarked)
b. Cc1cc(NC2CC(F)C2)n2nc(C(C)c3ccc(Cl)cc3)cc2n1 (centres unmarked)
Higher pEC50 between a and b ? Your answer should be the label of the entry you select. b

P. Cc1cc(N2CCC[C@H](NS(C)(=O)=O)C2)n2nc(Cc3ccc(Cl)cc3)cc2n1
Q. Cc1cc(N2CCCCC2CCO)n2nc(C(C)c3ccc(Cl)cc3)cc2n1 (centres unmarked)
Of P and Q , whose reported pEC50 is numerically smaller? When you have decided, please share the label of that item. P
(P: 5.45, Q: 6.93)
